System: goosegrass
Assay: Test E preemergence
Format: in vivo, Eleusine indica
Details: 125 g ai/ha, scale 0 to 100, 0 no effect, 100 complete control
Listed next: entries and their corresponding Plant response rating, Goosegrass.

- Compound: "N#Cc1cccc(Oc2ncc(Br)cn2)c1-n1cc(C(F)(F)F)cn1 [Compound 59]"
  Plant response rating, Goosegrass: 98
- Compound: "Clc1cnc(Oc2ccccc2-n2cc(Br)cn2)nc1 [Compound 7]"
  Plant response rating, Goosegrass: 75
- Compound: "FCc1cccc(Oc2ncc(Cl)cn2)c1-n1cc(Cl)cn1 [Compound 250]"
  Plant response rating, Goosegrass: 65
- Compound: "FC(F)(F)c1cnn(-c2ccccc2Oc2ncc(Br)cn2)c1 [Compound 18]"
  Plant response rating, Goosegrass: 90
